target.or.system: T1, AePiwi4 PAZ WT (Aedes aegypti, UniProt Q171B3 270-380)
T1 sequence: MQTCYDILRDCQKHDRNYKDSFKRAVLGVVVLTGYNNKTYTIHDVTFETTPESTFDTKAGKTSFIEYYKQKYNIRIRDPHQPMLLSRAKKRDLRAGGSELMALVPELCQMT
assay.info: SPR; SPR (Biacore T100, CM5-neutravidin, 5'-biotin RNA immobilized): 10 mM HEPES pH 7.4, 150 mM NaCl, 3 mM EDTA, 0.005% P20; steady-state fit; temperature not stated
test.parameters: protein: recombinant; tags: 6xHis (C-terminal); label: 5' biotin; single strand
recorded.endpoint: pKd
Convention used: pKd is expressed as -log10 of the molar concentration.

INSERT INTO measurements (binder, recorded_endpoint, measured_number) VALUES
  ('AUGAGGACAUAAGCCUACGUAGUAUUCC (ssRNA) [3''nm 28 nt scrambled RNA]', 'pKd', 5.60),
  ('CGAUAAGUGAUCUUUCAGCACUGCAGAA (ssRNA) [3''nm 28 nt PCLV piRNA]', 'pKd', 5.30);

As a next step, examine the binder that follows.
[ask] Suppose we examine the binder CGAUAAGUGAUCUUUCAGCACUGCAGAA (ssRNA, 3' terminal 2'-O-methyl) [3'm 28 nt PCLV piRNA] ; what pKd value has been reported?
[reply] 5.77
